This collection of values is drawn from the supplement of paper PMC8728848.

Molecular target: Kdn(a2-3)Gal(b1-4)Glc
Assay: glycan array binding signal (z-score within array); higher = stronger binding
Conditions: glycan notation: IUPAC condensed, linker removed
The full list was thinned out, with the strongest signals kept by preference.
REPORTED PROPERTY: glycan array binding signal (z-score)
Answer field: number only, no words.

INSERT INTO results (binder, test_result) VALUES
  ('FimA-N1 (Actinomyces oris) (protein) MHHHHHHSSGVDLGTENLYFQSNATETPNYGNIKTDATGSLVIHKHLTGGGKDIGTPTGTAQNADDKGPAVEGVVFTAYPITDINLKDPAGWDTISNLSRTGVPDSACANPAAPTLGAHQFGTPKVSPATTKEGLATITEMPVQAYLVCETTTPGDIVQKAKPFVVTIPHPNTAAGADGQWIYDVNVYPKNEAIDVDKTIQAQK', 0.117);

Q. Check the records and state glycan array binding signal (z-score) for SAG3 (Toxoplasma gondii), Q9BJ39 (protein) MQLWRRRAAGPASLGRQSLPLGCFFAAFGLCVLSAILGTGERGLFVAAGNSRRKITYFGTLTQKAPNWYRCSSTRAKEEVVGHVTLNKEHPDMTIECVDDGLGGEFLPLEGARSSYPRVCHIDAKDQDDCERNRGFLTDYIPGAKQYWYKIEKVEQNGEQSVLYKFTVPWILLPPAKQRYKVGCRYPNHEYCFVEVTVEPTPPMVEGKRVTCGYSESGPVNLEVDLSKNANFIEIRCGEQHHPQPSTYTLQYCSGDSVDPQKCSPQSLTNIFYDYSSSWWKGKLNGPDGATLTIPPGGFPEEDKSFLVGCSLTVDGPPFCNVKVRVAGNPRKWERGGGGHPGSGGLQPGTDGETQAGTGSSAGASSRMASVALAFLLGLLVHVAA
A. 0.107
